Data origin, for the record: paper PMC8512562

system: Mycobacterium tuberculosis H37Ra; test: Antimycobacterial screening (microdilution broth, resazurin) against M. tuberculosis H37Ra; format: cell-based; settings: Mycobacterium tuberculosis; M. tuberculosis H37Ra; resazurin added after 120 h; read-out: MIC Mtb H37Ra
Reported MIC values are given for each entry in this list.
Recorded endpoint: MIC (mg/L)

>>> observed("COC1CC2C(=CC1OC(=O)c1ccc(C(C)(C)C)cc1)C1CN2Cc2cc3c(cc21)OCO3 (centres unmarked)")
3.91
>>> observed("COc1ccc(C(=O)O[C@H]2C=C[C@@]34CCN(C)Cc5ccc(OC)c(c53)O[C@H]4C2)cc1OC")
62.5
>>> observed("CCCCc1ccc(C(=O)OC2C=C3C4CN(Cc5cc6c(cc54)OCO6)C3CC2OC)cc1 (centres unmarked)")
3.91
>>> observed("COc1cc2c(cc1OC)[C@@]13C=C[C@@H](OC(=O)c4cc(C)cc(C)c4)C[C@@H]1N(CC3)C2")
3.91
>>> observed("COc1ccc2c3c1O[C@H]1C[C@@H](OC(=O)c4c(C)cc(C)cc4C)C=C[C@@]31CCN(C)C2")
7.81
>>> observed("O=C(O)c1cn(C2CC2)c2cc(N3CCNCC3)c(F)cc2c1=O [ciprofloxacin, reference compound]")
0.25
>>> observed("COc1ccc2c3c1O[C@H]1C[C@@H](OC(=O)c4ccccc4C)C=C[C@@]31CCN(C)C2")
15.6
>>> observed("COc1ccc2c3c1O[C@H]1C[C@@H](OC(=O)c4cccc5ccccc45)C=C[C@@]31CCN(C)C2")
6.25
>>> observed("COc1cc(OC)cc(C(=O)O[C@H]2C=C[C@@]34CCN(C)Cc5ccc(OC)c(c53)O[C@H]4C2)c1")
15.6
>>> observed("COc1cccc(C(=O)O[C@H]2C=C[C@@]34CCN(C)Cc5ccc(OC)c(c53)O[C@H]4C2)c1")
31.2
>>> observed("COc1ccccc1C(=O)O[C@H]1C=C[C@@]23CCN(C)Cc4ccc(OC)c(c42)O[C@H]3C1")
62.5
>>> observed("COC1CC2C(=CC1OC(=O)c1c(C)cc(C)cc1C)C1CN2Cc2cc3c(cc21)OCO3 (centres unmarked)")
7.81
>>> observed("COC1CC2C(=CC1OC(=O)c1cc(C)cc(C)c1)C1CN2Cc2cc3c(cc21)OCO3 (centres unmarked)")
7.81
>>> observed("COc1ccc(C(=O)O[C@H]2C=C[C@@]34CCN(C)Cc5ccc(OC)c(c53)O[C@H]4C2)cc1")
31.2
>>> observed("COC1CC2C(=CC1OC(=O)c1cccc3ccccc13)C1CN2Cc2cc3c(cc21)OCO3 (centres unmarked)")
3.91
>>> observed("CCCCc1ccc(C(=O)O[C@H]2C=C[C@@]34CCN(C)Cc5ccc(OC)c(c53)O[C@H]4C2)cc1")
1.56
>>> observed("COc1ccc2c3c1O[C@H]1C[C@@H](OC(=O)c4cccc(C)c4C)C=C[C@@]31CCN(C)C2")
7.81
>>> observed("COc1ccc2c3c1O[C@H]1C[C@@H](OC(=O)c4cc(C)cc(C)c4)C=C[C@@]31CCN(C)C2")
7.81
>>> observed("COc1ccc2c3c1O[C@H]1C[C@@H](OC(=O)c4ccco4)C=C[C@@]31CCN(C)C2")
62.5
>>> observed("COc1ccc2c3c1O[C@H]1C[C@@H](OC(=O)c4ccc(C(C)(C)C)cc4)C=C[C@@]31CCN(C)C2")
3.12
